Hello, the source for this data is ChEMBL document CHEMBL1156041, in case you need it.

Tested on: Aspergillus niger
Assay: Antifungal activity against Aspergillus niger KCTC 1231 after 2 days by twofold broth dilution method
Assay type: functional
Conditions: KCTC 1231, 48 h
MEASURED_METRIC: log10(MIC) (log10 of the value in µg/mL)
Please be aware that the numbers have been log10-transformed from MIC in µg/mL.

The reported log10(MIC) of the compound `CCc1nc2c(o1)C(=O)C(Nc1ccc(C#N)cc1)=C(Br)C2=O` was 1.40

Go through the items and report each one's log10(MIC).
1. CCc1nc2c(o1)C(=O)C(Sc1ccccc1)=C(Sc1ccccc1)C2=O
2. CCc1nc2c(o1)C(=O)C(Nc1ccc(OC)cc1)=C(Br)C2=O
3. CCc1nc2c(o1)C(=O)C(Nc1ccc([N+](=O)[O-])cc1)=C(Br)C2=O

A)
[1.10, 0.51, 1.40]

----------
Kindly state MIC for each of the entries shown.
Test system: Aspergillus niger
Experiment: Antifungal activity against Aspergillus niger KCTC 1231 after 2 days by twofold broth dilution method
Assay type: functional
Conditions: KCTC 1231, 48 h
One number for each entry, in µg/mL.

The reported MIC of the compound `CCc1nc2c(o1)C(=O)C(Sc1ccc(Br)c(Br)c1)=C(Sc1ccc(Br)c(Br)c1)C2=O` was 25

Go through the items and report each one's MIC.
1. CCc1nc2c(o1)C(=O)C(Nc1ccccc1)=C(Br)C2=O
2. CCc1nc2c(o1)C(=O)C(Nc1ccc(Cl)cc1)=C(Br)C2=O
3. CCc1nc2c(o1)C(=O)C(Nc1cccc(F)c1)=C(Br)C2=O
4. CCc1nc2c(o1)C(=O)C(Sc1ccc(CC)c(CC)c1)=C(Sc1ccc(CC)c(CC)c1)C2=O
5. CCc1nc2c(o1)C(=O)C(Nc1ccc(F)cc1)=C(Br)C2=O
6. Nc1nc(=O)[nH]cc1F

A)
[1.6, 3.2, 6.3, 25, 6.3, 1.6]

----------
Test system: Aspergillus niger
Assay: Antifungal activity against Aspergillus niger KCTC 1231 after 2 days by twofold broth dilution method
Assay type: functional
Settings: KCTC 1231, 48 h
Kindly state MIC for each of the entries shown.
Numbers only, in µg/mL.

Some entries whose results are on file:
The reported MIC of the molecule `CCc1nc2c(o1)C(=O)C(Nc1ccc(O)cc1)=C(Br)C2=O` was 50

The reported MIC of the molecule `CCc1nc2c(o1)C(=O)C(Nc1ccc(I)cc1)=C(Br)C2=O` was 6.3

The reported MIC of the molecule `CCc1nc2c(o1)C(=O)C(Nc1ccc(Br)cc1)=C(Br)C2=O` was 0.8

Now for another entry.
The reported MIC of the molecule `CCc1nc2c(o1)C(=O)C(Sc1ccc(C)c(C)c1)=C(Sc1ccc(C)c(C)c1)C2=O` was 12.5

----------
System: Aspergillus niger
Assay: Antifungal activity against Aspergillus niger KCTC 1231 after 2 days by twofold broth dilution method
Format: functional
Conditions: KCTC 1231, 48 h
Kindly state MIC for each of the entries shown.
Give bare numbers, in µg/mL.

Some entries whose results are on file:
The reported MIC of the compound `CCc1nc2c(o1)C(=O)C(Nc1cccc(C#N)c1)=C(Br)C2=O` was 12.5

The reported MIC of the compound `CCc1nc2c(o1)C(=O)C(Nc1cccc(Cl)c1)=C(Br)C2=O` was 3.2

Others:
The reported MIC of the compound `CCc1nc2c(o1)C(=O)C(Nc1cccc(O)c1)=C(Br)C2=O` was 50
